The reported measurements were obtained from ChEMBL document CHEMBL4330134.

tested on: Mycobacterium tuberculosis; test: Antimycobacterial activity against Mycobacterium tuberculosis H37Rv ATCC 27294 after 4 days by microplate Alamar blue assay; format: functional; details: H37Rv ATCC 27294, 96 h
Each entry below lists one item and its recorded MIC value.
Assay Endpoint: MIC (µg/mL)

> print(dat)
                       smiles.representation  reported.relation  number
 1                   CCOC(=O)/C=C/C(=O)C1CC1                  >       4
 2  CC(C)OC(=O)/C=C/C(=O)c1ccc([N+](=O)[O-])cc1                  =     0.5
 3        CC(=O)/C=C/C(=O)OCCNC(=O)OC(C)(C)C                  >       4
 4         CCN(C)C(=O)/C=C/C(=O)c1cccc(OC)c1                  =    1.88
 5  CC(C)(C)OC(=O)NCCOC(=O)/C=C/C(=O)c1cccc2ccccc12                  >       4
 6             CN(C)C(=O)/C=C/C(=O)c1ccccc1F                  =    0.95
 7       CCCN(CCC)C(=O)/C=C/C(=O)c1cccc(F)c1                  =    0.96
 8             CCOC(=O)/C=C/C(=O)c1ccc(C)cc1                  >       4
 9  CCN(C)C(=O)/C=C/C(=O)c1cccc([N+](=O)[O-])c1                  >       2
10        CCOc1ccc(C(=O)/C=C/C(=O)N(C)CC)cc1                  =    0.48
11         CCN(C)C(=O)/C=C/C(=O)c1ccc(OC)cc1                  =    0.93
12             CC(C)OC(=O)/C=C/C(=O)C1CCCCC1                  >       4
13          CN(C)C(=O)/C=C/C(=O)c1ccc(Br)cc1                  =    0.25
14       CN(C)C(=O)/C=C/C(=O)c1ccc2c(c1)OCO2                  =    0.79
15          CCOC(=O)/C=C/C(=O)c1cccc2ccccc12                  =    0.61
16            CCOC(=O)/C=C/C(=O)c1cccc(OC)c1                  =    0.82
17  CC(C)(C)OC(=O)NCCOC(=O)/C=C/C(=O)c1ccco1                  >       4
18  CN(C)C(=O)/C=C/C(=O)c1ccc([N+](=O)[O-])cc1                  =    0.93
19            COc1ccccc1C(=O)/C=C/C(=O)N(C)C                  =    0.92
20    CC(C)(C)OC(=O)NCCOC(=O)/C=C/C(=O)C1CC1                  =    1.45
21  COc1ccccc1C(=O)/C=C/C(=O)OCCNC(=O)OC(C)(C)C                  >       4
22  CC(C)(C)OC(=O)NCCOC(=O)/C=C/C(=O)c1ccc2c(c1)OCO2                  >       4
23            O=C(O)/C=C/C(=O)c1ccc(Cl)cc1Cl                  >       4
24  CC(C)(C)OC(=O)NCCOC(=O)/C=C/C(=O)c1ccc(Cl)cc1Cl                  >       4
25              COc1ccc(C(=O)/C=C/C(=O)O)cc1                  >       4
